# Lookup of reported pKi keyed by entry
Target: rA2A adenosine receptor (Rattus norvegicus)
Construct: membranes of rat striatum (80-100 μmg of protein/assay); from tissue; host or cells: striatum of male Wistar rats
Sequence (P30543 whole entry): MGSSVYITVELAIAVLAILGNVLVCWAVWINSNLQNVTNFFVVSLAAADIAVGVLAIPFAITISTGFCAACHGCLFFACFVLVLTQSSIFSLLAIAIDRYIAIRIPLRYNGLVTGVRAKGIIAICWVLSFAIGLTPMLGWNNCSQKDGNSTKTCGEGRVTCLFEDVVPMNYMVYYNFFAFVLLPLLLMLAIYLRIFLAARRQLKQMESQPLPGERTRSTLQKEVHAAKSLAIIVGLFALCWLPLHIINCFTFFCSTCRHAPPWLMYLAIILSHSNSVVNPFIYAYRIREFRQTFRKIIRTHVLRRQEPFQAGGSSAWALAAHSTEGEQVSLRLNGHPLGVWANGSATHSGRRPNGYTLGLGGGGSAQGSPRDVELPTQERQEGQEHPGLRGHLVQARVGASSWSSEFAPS
Experiment: Rat A2A adenosine receptor binding assay, [3H]SCH58261 displacement, rat striatum membranes
Settings: rat striatum membranes, [3H]SCH58261; read-out: rA2A (Ki)
Entry type: numeric. Quantity: pKi, the -log10 of concentration in molar units.

Input: Would you please give the reported pKi of COc1ccc(NC(=O)Nc2nc3nn(CCc4ccccc4)cc3c3nc(-c4ccco4)nn23)cc1 [Compound 55] with rA2A adenosine receptor (Rattus norvegicus)?
Output: 5.85

Continuing:
Input: Would you please give the reported pKi of CC(C)=CCn1cc2c(nc(NC(=O)Nc3cccc(Cl)c3)n3nc(-c4ccco4)nc23)n1 [Compound 52] with rA2A adenosine receptor (Rattus norvegicus)?
Output: 5.84

----------
Biological target: human recombinant A3 adenosine receptor (Homo sapiens, UniProt P0DMS8)
Sequence (P0DMS8 1-318): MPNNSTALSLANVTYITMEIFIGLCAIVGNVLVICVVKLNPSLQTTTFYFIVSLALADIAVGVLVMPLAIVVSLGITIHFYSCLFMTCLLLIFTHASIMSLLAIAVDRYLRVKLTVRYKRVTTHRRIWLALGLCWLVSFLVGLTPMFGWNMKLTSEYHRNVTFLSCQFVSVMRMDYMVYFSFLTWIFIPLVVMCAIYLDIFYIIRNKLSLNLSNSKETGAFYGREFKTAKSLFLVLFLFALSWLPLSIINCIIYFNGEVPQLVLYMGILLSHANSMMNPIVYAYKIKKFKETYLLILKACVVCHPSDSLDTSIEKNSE
Assay: Human cloned A3 adenosine receptor binding assay, [125I]AB-MECA, HEK-293 membranes
Design: USA; host or cells: HEK-293
Settings: selectivity ratio of Ki values
MEASURE NAME: rA2A/hA3

Input: Please report rA2A/hA3 for the following compound: CCCn1cc2c(nc(NC(=O)Nc3cccc(Cl)c3)n3nc(-c4ccco4)nc23)n1
Output: >20,408

Input: Please report rA2A/hA3 for the following compound: COc1ccc(NC(=O)Nc2nc3nn(CCCc4ccccc4)cc3c3nc(-c4ccco4)nn23)cc1
Output: >504

Input: Please report rA2A/hA3 for the following compound: CCn1cc2c(nc(NC(=O)Nc3cccc(Cl)c3)n3nc(-c4ccco4)nc23)n1
Output: 1,339
